Origin of the recorded values: patent US20140296316A1

Biological target: human PDHK1 (hPDHK1) (Homo sapiens)
Sequence (Q15118 29-436): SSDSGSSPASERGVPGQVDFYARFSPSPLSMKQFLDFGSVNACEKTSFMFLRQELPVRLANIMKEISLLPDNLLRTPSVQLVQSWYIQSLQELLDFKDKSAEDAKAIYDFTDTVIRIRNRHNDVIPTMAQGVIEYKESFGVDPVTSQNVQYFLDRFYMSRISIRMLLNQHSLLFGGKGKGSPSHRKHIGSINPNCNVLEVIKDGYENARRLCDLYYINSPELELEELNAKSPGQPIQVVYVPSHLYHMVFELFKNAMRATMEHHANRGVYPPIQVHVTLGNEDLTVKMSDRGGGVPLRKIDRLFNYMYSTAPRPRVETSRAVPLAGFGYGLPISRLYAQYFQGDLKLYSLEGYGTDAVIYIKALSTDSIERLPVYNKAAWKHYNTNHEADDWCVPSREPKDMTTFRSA
Test: Inhibitory action of PDHK1 activity in vitro (residual PDH activity after kinase reaction)
Details: PDH/hPDHK1 complex, PDHK reaction 45 min at room temperature
Description: The inhibitory action of PDHK activity was assessed indirectly by measuring the residual PDH activity after kinase reaction in the presence of a test compound. […] Then, 10 μL of substrates (5 mmol/L sodium pyruvate, 5 mmol/L Coenzyme A, 12 mmol/L NAD, 5 mmol/L thiamin pyrophosphate, diluted with buffer) were added. The mixture was incubated at room temperature for 90 min, and the residual PDH activity was measured. […]
pIC50: −log10 of the molar value.

compound | pIC50
CC(CO)(CO)n1cc(-c2cc(F)cc3c2-c2ccccc2[C@]3(O)C(F)(F)F)cn1 [Form I crystal of compound (Ah)] | 7.59

###

IC50 values by entry
Target: human PDHK2 (hPDHK2) (Homo sapiens)
Construct: made in house; host or cells: Escherichia coli BL21(DE3), pET17b vector
Test: Inhibitory action of PDHK2 activity in vitro (residual PDH activity after kinase reaction)
Type: biochemical
Conditions: PDH/hPDHK2 complex, PDHK reaction 45 min at room temperature

compound | measured on | unit | IC50
Cc1cc(-c2cnn(C(CO)(CO)CO)c2)c2c(c1)[C@@](O)(C(F)(F)F)c1ccccc1-2 [Form IVb crystal of compound (Bh)] | human PDHK2 (hPDHK2) (Homo sapiens) | nM | 20
CC(CO)(CO)n1cc(-c2cc(F)cc3c2-c2ccccc2[C@]3(O)C(F)(F)F)cn1 [Form I crystal of compound (Ah)] | human PDHK2 (hPDHK2) (Homo sapiens) | nM | 14
